- System: L1210 leukemia ip in BDF1 mice, survival T/C
- Measurement notes: NCI In Vivo Anticancer Drug Screen. Data for tumor model L1210 Leukemia (intraperitoneal) in B6D2F1 (BDF1) mice
- Experimental parameters: endpoint: mean survival time; dose: 100.0 mg/kg/injection; schedule: Q01DX009 (ip); vehicle: Klucel (hydroxypropylcellulose) (HPC)
Inconclusive results and toxic doses are left out. Cut-off read from the data, not from the text of the source: active = T/C of 150% or more; inactive = T/C below 125%.
Field 'call' accepts active, inactive

* CC(C)(C)C1CCC(NC(=O)CCl)CC1 (stereo unspecified) | inactive

State the result this test recorded for O=[N+]([O-])c1cccc(N=Cc2ccccc2)c1 .
inactive

State the result this test recorded for O=C(NCCNC(=O)Nc1ccc(Cl)cc1)Nc1ccc(Cl)cc1 .
inactive

State the result this test recorded for CCCCOc1ccc(OC(=O)Nc2cc(C)ccc2C)cc1 .
inactive

State the result this test recorded for CCCCCCCCCCCCCCCCOCCCCCCCCCCCCCCCC .
inactive

State the result this test recorded for CC(=O)Nc1ccc(C=Nc2ccccc2)cc1 .
inactive

====

- System: L1210 leukemia ip in BDF1 mice, survival T/C
- Measurement notes: NCI In Vivo Anticancer Drug Screen. Data for tumor model L1210 Leukemia (intraperitoneal) in B6D2F1 (BDF1) mice
- Experimental parameters: endpoint: mean survival time; dose: 200.0 mg/kg/injection; schedule: Q01DX001 (ip); vehicle: carboxymethylcellulose (CMC); higher = longer survival
- Description: The antitumor activity of compounds was measured in mice bearing transplantable tumors. Survival or tumor size were measured and the results are expressed as the measurement made in the treated group (T) divided by the measurement made in the vehicle treated control group (C). The tumor model used in this assay is L1210 Leukemia (intraperitoneal) in B6D2F1 (BDF1) mice
Inconclusive results and toxic doses are left out.
Measured endpoint: T/C

* CCCCCCCCCCCCCCCN(CCCl)CCCl | 96 % of control
* C/C=C/Sc1ccccc1C(=O)O | 104 % of control
* O=[N+]([O-])c1ccc(N=Cc2ccccc2O)c(O)c1 | 104 % of control
* CCOC(=O)C1CC2(c3ccccc3)C(=O)C1(c1ccccc1)C(c1ccccc1)=C2c1ccccc1 (stereo not given) | 100 % of control
* CCC1CN2CCc3cc(OC)c(OC)cc3C2CC1CC1c2cc(OC)c(OC)cc2CCN1C(=O)C1CCCN1C(=O)OCc1ccccc1 (stereo not given) | 106 % of control

Could you tell me which T/C is on file for CC(=O)OCC1OC(n2cc(C)c(=O)[nH]c2=O)C(NC(=O)C(Cl)(Cl)Cl)C(OC(C)=O)C1OC(C)=O (stereo not given) ?
100 % of control

Could you tell me which T/C is on file for O=C(COc1cccc(Cl)c1)Nc1cccc(NC(=O)c2cccc(S(=O)(=O)F)c2)c1 ?
88 % of control

Could you tell me which T/C is on file for O=c1[nH]cc(/C=N/O)c(=O)[nH]1 ?
106 % of control

Could you tell me which T/C is on file for O=C(C(=O)c1ccc(O)cc1)c1ccccc1 ?
97 % of control

====

Recorded T/C values for a group of compounds are listed next.
- Tested on: L1210 leukemia ip in BDF1 mice, survival T/C
- Measurement notes: NCI In Vivo Anticancer Drug Screen. Data for tumor model L1210 Leukemia (intraperitoneal) in B6D2F1 (BDF1) mice
- Experimental parameters: endpoint: mean survival time; dose: 10.0 mg/kg/injection; schedule: Q01DX001 (ip); vehicle: carboxymethylcellulose (CMC); higher = longer survival
Inconclusive results and toxic doses are left out.

For orientation, consider the following solved cases.
• Clc1nc(Cl)c(CBr)c(Cl)n1 = 96 % of control
• CSc1nncc(=O)[nH]1.[Hg] = 102 % of control
• CCNC(=S)S.[Zn+2] = 95 % of control
• C=CCCCCCCCCC(=O)O (tested in a mixture with another compound) = 93 % of control
• Cc1n(CC(C)C)c2c([n+]1CC(=O)c1ccc([N+](=O)[O-])cc1)C(=O)c1ccccc1C2=O = 86 % of control

Next compound, please.
Could you tell me which T/C is on file for CCCCCCCCCCCCCCCCCC(=O)[O][Hg][c]1ccccc1 ?
94 % of control
